measuredOn: Aldo-keto reductase family 1 member C3 (Homo sapiens)
protocolText: Inhibition of recombinant human AKR1C3 expressed in Escherichia coli BL21 […] at 50 uM using [14C]androstenedione as substrate in presence of NADPH generating system
measure: inhibition

Example compounds with recorded inhibition:
- O=C(Nc1cccc(C(F)(F)F)c1)c1nonc1O: 35.4%
- O=C(Nc1cccc(C(F)(F)F)c1)c1nsnc1O: 47.2%

Name the recorded inhibition of the compound listed here: "Cn1nc(O)c(C(=O)Nc2cccc(C(F)(F)F)c2)n1"
18.5%

Name the recorded inhibition of the compound listed here: "O=C(Nc1cccc(C(F)(F)F)c1)c1nn(CC2CC2)nc1O"
5.35%

* * *

measuredOn: Aldo-keto reductase family 1 member C3 (Homo sapiens, UniProt P42330)
Sequence (P42330 whole entry): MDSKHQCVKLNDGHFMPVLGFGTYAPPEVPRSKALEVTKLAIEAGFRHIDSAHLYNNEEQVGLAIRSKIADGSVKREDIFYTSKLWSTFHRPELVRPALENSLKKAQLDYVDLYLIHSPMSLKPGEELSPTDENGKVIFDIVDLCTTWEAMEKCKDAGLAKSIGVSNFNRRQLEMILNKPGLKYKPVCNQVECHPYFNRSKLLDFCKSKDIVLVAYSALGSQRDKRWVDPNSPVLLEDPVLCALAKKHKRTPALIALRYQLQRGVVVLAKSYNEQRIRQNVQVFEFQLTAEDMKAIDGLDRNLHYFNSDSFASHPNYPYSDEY
protocolText: Inhibition of recombinant human AKR1C3 expressed in Escherichia coli BL21 (DE) using [14C]androstenedione as substrate in presence of NADPH generating system
measure: pIC50
Remember the convention: pIC50 equals -log10 of concentration in molar.

* O=C(Nc1cccc(C(F)(F)F)c1)c1c(O)nnn1CC1CC1 | 4.88

Alright, here's another molecule for you.
Name the recorded pIC50 of the molecule listed here: "COc1ccc(Cn2nnc(O)c2C(=O)Nc2cccc(C(F)(F)F)c2)cc1"
5.45

* * *

measuredOn: Aldo-keto reductase family 1 member C3 (Homo sapiens, UniProt P42330)
protocolText: Inhibition of recombinant human AKR1C3 expressed in Escherichia coli BL21 (DE) using [14C]androstenedione as substrate in presence of NADPH generating system
measure: IC50 (µM)
Write the answer as a number in µM, unit excluded.

Example molecules with recorded IC50:
• O=C(O)c1ccccc1Nc1cccc(C(F)(F)F)c1 [FLUFENAMIC ACID] = 8.63
• Cn1nnc(O)c1C(=O)Nc1cccc(C(F)(F)F)c1 = 32.8

Alright, here's another molecule for you.
Name the recorded IC50 of the molecule listed here: "O=C(Nc1cccc(C(F)(F)F)c1)c1c(O)nnn1Cc1ccccc1"
10.2

* * *

measuredOn: Prostaglandin G/H synthase 1 (Ovis aries, UniProt P05979)
Sequence (P05979 whole entry): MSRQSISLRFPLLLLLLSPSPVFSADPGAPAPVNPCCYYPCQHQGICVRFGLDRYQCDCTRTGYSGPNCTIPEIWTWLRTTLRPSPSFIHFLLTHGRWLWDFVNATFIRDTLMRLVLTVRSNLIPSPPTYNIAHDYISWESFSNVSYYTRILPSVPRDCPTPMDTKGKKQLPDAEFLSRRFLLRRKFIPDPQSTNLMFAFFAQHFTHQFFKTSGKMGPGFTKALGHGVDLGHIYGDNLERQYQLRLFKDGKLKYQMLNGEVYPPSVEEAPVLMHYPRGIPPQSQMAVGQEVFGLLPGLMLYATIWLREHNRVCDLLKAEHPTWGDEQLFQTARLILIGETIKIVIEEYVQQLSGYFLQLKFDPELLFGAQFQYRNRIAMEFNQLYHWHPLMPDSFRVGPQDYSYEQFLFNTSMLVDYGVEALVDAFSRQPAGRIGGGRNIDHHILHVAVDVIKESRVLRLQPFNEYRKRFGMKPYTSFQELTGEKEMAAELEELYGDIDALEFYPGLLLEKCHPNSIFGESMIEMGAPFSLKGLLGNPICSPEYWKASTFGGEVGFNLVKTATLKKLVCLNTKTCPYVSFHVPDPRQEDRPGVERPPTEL
protocolText: Inhibition of ovine COX1 assessed as reduction in PGF2alpha production by ELISA
pIC50: −log10 of the molar value.
measure: pIC50

Example compounds with recorded pIC50:
• O=C(O)c1ccccc1Nc1cccc(C(F)(F)F)c1 = 4.85
• COc1ccc(Cn2nnc(O)c2C(=O)Nc2cccc(C(F)(F)F)c2)cc1 = < 4.00
• O=C(Nc1cccc(C(F)(F)F)c1)c1c(O)nnn1CC1CC1 = < 4.00

Alright, here's another compound for you.
Name the recorded pIC50 of the compound listed here: "O=C(Nc1cccc(C(F)(F)F)c1)c1c(O)nnn1Cc1ccccc1"
< 4.00

* * *

measuredOn: Aldo-keto reductase family 1 member C3 (Homo sapiens)
protocolText: Inhibition of AKR1C3 (unknown origin) using S-tetralol as substrate in presence of NADP+ by fluorimtery
This section presents compounds with their documented pIC50 values.
Remember the convention: pIC50 equals -log10 of concentration in molar.

Example compounds with recorded pIC50:
- O=C(Nc1cccc(C(F)(F)F)c1)c1c(O)nnn1CC1CC1: 5.80
- COc1ccc(Cn2nnc(O)c2C(=O)Nc2cccc(C(F)(F)F)c2)cc1: 6.51
- O=C(O)c1ccccc1Nc1cccc(C(F)(F)F)c1 [FLUFENAMIC ACID]: 6.36

Alright, here's another compound for you.
Lab note: record pIC50 of "O=C(Nc1cccc(C(F)(F)F)c1)c1c(O)nnn1Cc1ccccc1" tested on Aldo-keto reductase family 1 member C3 (Homo sapiens).
6.32
